- protocolDescription: inhibitors of TNFa-induced NFkB p65 translocation, primary screen, imaging, HUVEC, MLSMR starter and 10KST1 sets (AID 438);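 note: compound added about 3h40 before a 20 min TNFalpha stimulation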;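 for inhibition: signal is the nuclear over cytoplasmic p65 intensity ratio per well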
- details: HUVEC TNFa-induced p65 nuclear translocation; at 2 µM, stronger effect = higher value, 0% TNFa-plus-vehicle, 100% no-TNFa wells
readout: inhibition (%)

* Cc1ccc(S(=O)(=O)N2CCC(C(=O)N[C@@H](Cc3ccccc3)C(=O)O)CC2)cc1 | -14.4
* Cc1ccc(-c2nn(C)c(=O)c3ccccc23)cc1S(=O)(=O)N1CCOCC1 | -10.5
* Cc1ccc(C(C)C)c(OCc2nnc(SCC(=O)Nc3ncc(C)s3)n2C)c1 | 0.5

====

- protocolDescription: inhibitors of TNFa-induced NFkB p65 translocation, primary screen, imaging, HUVEC, MLSMR starter and 10KST1 sets (AID 438);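 note: compound added about 3h40 before a 20 min TNFalpha stimulation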
- details: HUVEC TNFa-induced p65 nuclear translocation; measured here: nuclei count (cytotoxicity indicator), at 2.08 µM
readout: cell count

- O=C(c1ccco1)N1CCN(C(=O)c2ccc(Cn3cc(Br)cn3)o2)CC1: 371
- CN(C)c1cccc(N=C2C=C(N3CCOCC3)CC(C)(C)C2)c1: 473
- O=C(OCc1cccs1)c1ccccc1NS(=O)(=O)c1ccc2c(c1)OCCO2: 709
- CC(C)CCNC(=O)NC(=O)CSc1nnc(-c2ccccc2F)n1N: 572
- COC(=O)Cn1c(C)nc2c(sc3nc(C)cc(C)c32)c1=O: 674
- CC1CCN(CCC(=O)Nc2ccc(Br)cc2)CC1: 612
- CC(C)NC(=O)c1ccccc1NC(=O)c1ccccc1N(C)S(C)(=O)=O: 554
- Cc1cccc(C(=O)N2CCN(C(=O)c3cccc(C)c3)C(C)C2)c1 (stereo not drawn): 394
- COc1ccc(-c2nn(-c3ccccc3)cc2/C=N/n2cnnc2)cc1OC: 737
- Cc1cc(S(=O)(=O)n2cnc3ccccc32)c(C)cc1Cl: 449
- Cc1cc(S(=O)(=O)NC2CCCCC2)ccc1OCC(=O)NCc1ccccn1: 346
- CCc1nc(SCC(=O)Nc2nccs2)c2oc3ccccc3c2n1: 347
- CCc1ccc(NS(=O)(=O)c2ccc3[nH]cc(C(=O)N4CCCCC4)c(=O)c3c2)cc1: 672
- COCCNC(=O)c1ccc2c(c1)nc(C)n2-c1cccc(F)c1: 292
- Cc1ccc(CNC(=O)C2CCCN(S(=O)(=O)c3cccnc3)C2)cc1 (stereo not drawn): 313
- CCNC(=O)COc1ccc(Br)cc1Cl: 302
- Cc1ccc(C)c(-n2c(Cc3cc(=O)[nH]c(=O)[nH]3)nnc2SCC(=O)NCc2ccco2)c1: 254
- Cc1nc(SCC(=O)N2CCC(C(N)=O)CC2)n[nH]1: 516
- COC(=O)CCCCCNc1ccc(C(=O)OC)cc1N: 292
- c1ccc(-c2n[nH]c3ccccc23)cc1: 708
- Cc1nc2ccccc2c(=O)n1NC(=O)c1ccc(F)cc1Cl: 302
- COc1ccc(Cl)cc1NC(=O)COc1cccc(-n2cnnn2)c1: 371
- O=C(NC1(C(F)(F)F)NC(=O)N(Cc2ccco2)C1=O)c1cccnc1 (stereo not drawn): 495

====

- testedTarget: Muscarinic acetylcholine receptor M4 (Homo sapiens) (UniProt P08173)
- Sequence (P08173 whole entry, looked up): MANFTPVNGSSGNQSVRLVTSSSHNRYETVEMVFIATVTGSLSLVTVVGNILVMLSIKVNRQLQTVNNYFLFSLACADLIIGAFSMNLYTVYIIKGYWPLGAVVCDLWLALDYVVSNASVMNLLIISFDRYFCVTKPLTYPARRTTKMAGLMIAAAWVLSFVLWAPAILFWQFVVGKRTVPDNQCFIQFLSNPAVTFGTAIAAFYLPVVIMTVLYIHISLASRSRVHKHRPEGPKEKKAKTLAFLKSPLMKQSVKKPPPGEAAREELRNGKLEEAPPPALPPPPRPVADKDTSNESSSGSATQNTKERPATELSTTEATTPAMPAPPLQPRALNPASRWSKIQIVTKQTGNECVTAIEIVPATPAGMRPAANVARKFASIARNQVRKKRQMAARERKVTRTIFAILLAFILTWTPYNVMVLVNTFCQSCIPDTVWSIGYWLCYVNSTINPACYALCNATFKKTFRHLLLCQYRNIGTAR
- protocolDescription: M4-linked GIRK flux change, two-sided – cell-based, HEK293 M4/GIRK, thallium flux, BTC-AM, M4 allosteric agonist project, primary screen (AID 625);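 note: thallium influx through GIRK channels coupled to M4 in HEK293 cells with BTC-AM dye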
- details: at 10 µM, actives lie on both sides
Active and inactive are the calls of the source.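 The calls were made as follows: active = fluorescence slope after compound addition differing from the mean of all tested samples at 99.7% confidence, mostly higher but some lower; inactive = the rest.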
readout: fluorescence slope

• Cn1cnnc1SCC(=O)Nc1sc2c(c1C#N)CCCCC2 = 0.00534 (inactive)
• O=C(c1ccc(Cl)c(Cl)c1)N1CCOCC1 = 0.00532 (inactive)
• C=CCOc1ccc(C2C(C(=O)c3ccco3)=C(O)C(=O)N2Cc2cccnc2)cc1 (stereo not given) = 0.00458 (inactive)
• O=C1CSC(c2cn(-c3ccccc3)nc2-c2cccs2)N1CC1CCCO1 (stereo not given) = 0.00528 (inactive)
• C=C(C)CSc1nnc(-c2cccc(S(=O)(=O)N(C)C)c2)n1-c1cc(OC)ccc1OC = 0.00586 (inactive)
• CCC(C)NC(=O)C1CCCN(S(=O)(=O)c2ccc(-n3cnnn3)cc2)C1 (stereo not given) = 0.00556 (inactive)
• Cc1occc1C(=O)Nc1cccnc1 = 0.00413 (inactive)
• COc1ccc(CN(C(=O)CNC(=O)c2ccco2)C(C(=O)NC2CCCC2)c2ccco2)cc1 (stereo not given) = 0.00679 (inactive)
• CC1CN(c2nc3ccccn3c(=O)c2/C=C(\C#N)S(=O)(=O)c2ccccc2)CC(C)O1 (stereo not given) = 0.00288 (inactive)
• COc1ccc(C2C(C(C)=O)=C(C)N=c3s/c(=C\c4ccc5c(c4)OCO5)c(=O)n32)c(OC)c1 (stereo not given) = 0.00431 (inactive)
• Cc1ccc(C2CC(c3cccc(Br)c3)Nc3nnnn32)cc1 (stereo not given) = 0.00604 (inactive)
• CCN1CCN(Cc2c(C)[nH]c3ccc(OC)cc3c2=O)CC1 = 0.00708 (inactive)
• CCn1c(=O)n(CC(=O)Nc2cc(OC)ccc2OC)c(=O)c2ccccc21 = 0.00496 (inactive)
• O=c1c2ccccc2sn1-c1ccc(S(=O)(=O)N2CCCCC2)cc1 = 0.00829 (inactive)
• Cc1cc(NC(=O)COc2ncnc3sc(C)c(C)c23)no1 = 0.00692 (inactive)
• COCn1c(COc2ccccc2)nc2ccccc21 = 0.00599 (inactive)
• Cc1ccc(S(=O)(=O)N(C)c2ccc(OCC(=O)OCc3c(C)noc3C)cc2)cc1 = 0.00507 (inactive)
• Oc1oc(-c2ccccc2)nc1C=NCc1ccncc1 = 0.00715 (inactive)
• O=C1c2cccnc2C(O)N1Cc1ccc(F)cc1 (stereo not given) = 0.00468 (inactive)
• Cc1ccc(NC2=NC(c3ccccc3)n3c(nc(C)cc3=O)N2)cc1 (stereo not given) = 0.00472 (inactive)
• O=C(OCC(=O)c1c[nH]c2ccccc12)C1=COCCO1 = 0.00653 (inactive)
• COc1cc(-c2c(C#N)c(N)nc3c2CCCC3)cc(OC)c1OC = 0.0058 (inactive)
• CCOc1ccc(OCC)c(NC(=O)C2CCN(S(=O)(=O)c3cnc[nH]3)CC2)c1 = 0.00665 (inactive)
• COc1ccc(OC(C)C(=O)N2CC(C)OC(C)C2)cc1 (stereo not given) = 0.00556 (inactive)
• CN1C(=O)NC(NC(=O)C2CCCCC2)(C(F)(F)F)C1=O (stereo not given) = 0.0049 (inactive)

====

Some compounds, each annotated with its measured nuclei count.
- protocolDescription: reduction of polyQ htt aggregates in cells – imaging, exon1htt(103Q)mCFP cells, high-content imaging, primary screen (AID 483);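 note: compound exposure lasted 3 days before fixation; percent of the per-plate median nuclei count of sample wells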
- details: exon1htt(103Q)mCFP cell line, aggregate imaging, at 2 µM; measured here: cell count, toxicity
readout: nuclei count (%)

* CC1(c2ccc(OC(F)F)cc2)NC(=O)N(CC(=O)Nc2ccc3c(c2)OCO3)C1=O (stereo unspecified) | 109
* CCOC(=O)c1[nH]cc(-c2ccccc2)c1N1CCOCC1 | 110
* CCOC(=O)c1cnc(-n2nc(C)cc2C)nc1Nc1cccc(C(C)=O)c1 | 104
* COCc1[nH]nc2c1C(C1C=CCCC1)C(C#N)=C(N)O2 (stereo unspecified) | 110
* CCOC(=O)c1cccc(NC(=O)CSc2nnc(-c3ccoc3C)n2CCOC)c1 | 89.7
* O=C(O)c1c[nH]c2ccc(S(=O)(=O)N3CCN(c4ccc(F)cc4)CC3)cc2c1=O | 87.5
* CCOC(=O)CSc1nnc(CNC(=O)c2cccs2)n1-c1cc(OC)ccc1OC | 103
* Cc1ccccc1-c1nc2ccccc2c(=O)n1C1CCS(=O)(=O)C1 (stereo unspecified) | 110
* CCNC(=O)Cn1cnc2c1c(=O)n(C)c(=O)n2C | 113
* COc1ccc(OC)c(C2=NOC(C(=O)Nc3cccnc3)C2)c1 (stereo unspecified) | 100
* CC(C)(C)NC(=O)Nc1ccccc1C(N)=O | 108

====

- protocolDescription: endothelial E-selectin expression blockers – imaging, HUVEC, immunofluorescence, MLSMR starter and 10KST1 sets, primary screen (AID 487);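 note: signal is fraction of cell area covered by stained E-selectin grains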
- details: HUVEC TNFalpha-induced E-selectin immunofluorescence imaging, at 2 µM; stronger effect = higher value
readout: inhibition (%)

* O=C(c1ccc(N2C(=O)C3CC=C(Cl)CC3C2=O)cc1)N1CCCCC1 (stereo not given) | -148
* CCOc1cc(S(=O)(=O)NCc2ccccn2)c(C)cc1C | -20
* CC1(C)CC(=O)C(C=NCCO)=C(O)C1 | -45.4
* CN(C(=O)c1ccncc1)C1CC(C)(C)N(O)C(C)(C)C1 | -67.4
* Cc1coc(NC(=O)CSc2nc(-c3ccncc3)cc(C(F)(F)F)c2C#N)n1 | -29.3
* N#Cc1cn(CC(=O)N2CCCC2)c2ccccc12 | -18.5
* N#CC1=C(N)Oc2n[nH]c(-c3cccs3)c2C1c1cccs1 (stereo not given) | -80.1
* Cc1ccc2nsnc2c1S(=O)(=O)N1CCN(Cc2ccc3c(c2)OCO3)CC1 | -9.8
* CCOC(=O)c1ccccc1NC(=O)CSc1nc2c(c(=O)n(C)c(=O)n2C)n1C | 12.3
* c1ccc2c(NC3CCCC3)nnc(NC3CCCC3)c2c1 | -69.1
